The measured values listed here are drawn from patent EP0036652A2.

- assaySummary: Half-life in the rat
- Parameters: species or system Ratte
- particulars: in vivo, 20 mg/kg, after administration of 20 mg substance per kg body weight, read-out: Halbwertzeit
recordedMetric: half-life (min)
Respond numerically; units are min and should not be typed.

Just so you know, measured half-life for CO/N=C(\C(=O)N[C@@H]1C(=O)N2C(C(=O)O)=C(CSc3nc(C(=O)O)nn3C)CS[C@H]12)c1csc(N)n1 came out at 22
